Measured values drawn from patent EP4461293B1 for this set.

Tested on: MCF-7
Assay: MTT viability assay, MCF-7
Format: cell-based, human
Settings: 72h, without biotin (Table 2b); read-out: MCF-7 IC50
Listing of entries alongside the reported pIC50.
Would you please state pIC50, meaning minus log10 of the concentration in mol/L, as a bare number?

N.N.[Cl][Pt][Cl] [Cisplatin, reference compound]; 5.05

Turning now to a further molecule:
Which pIC50 is reported for this molecule? CC(N)C(N)CCCCCC(=O)O.O=C1[O][Pt][O]C1=O (centres unmarked)
3.88

====

Assay: Pharmacokinetic study in mice, plasma by LC-MS/MS
Type: in vivo, female C57BL/6 mice
Details: mouse, ip, 60 mg/kg, read-out: Areas under the curve (AUCs) (converted)
MEASURED_QUANTITY: AUC at 2 h (µM·h)
Quick note: give the figure in µM·h, leave out the unit.

Which AUC at 2 h is reported for this compound? [NH3+][Pt-2]1([NH3+])[O]C(=O)C2(CCC2)C(=O)[O]1 [Carboplatin]
69.4
